System: SF-539
Experiment: NCI tumour cell line growth inhibition, 48 h
Activity calls are given as the source filed them. No stated cut-off is given here; in the data, active = GI50 up to about 1.1 µM and inactive = higher.
Give your call using only these classes: active, inactive

A selection of reference data follows.
compound	classification
CCCCCCCCCC(=O)NC(CCC(=O)N(CCNC(=O)c1nc(-c2ccccc2)oc1-c1ccccc1)Cc1ccccc1)C(=O)O (stereo not drawn)	inactive
C/C(=N/N(C=O)C[n+]1ccccc1)C(CN(CC(C)C)CC(C)C)C(=O)Nc1ccc(C)cc1C (stereo not drawn)	inactive
CC1(C)C2CC(c3ccncc3)ON2C(C)(C)N1O (stereo not drawn)	inactive
O=C1Nc2nccnc2C(=O)N2CCC[C@@H]12	inactive
Cc1cc2occ(-c3ccc(Cl)cc3)c2c(=O)o1	inactive

For CN(C)C(=S)/N=c1\ssc(=S)n1Cc1ccccn1 , which call appears in the assay record?
inactive

Hey, what did the test say about COc1cc2ncnc(Nc3cccc(Br)c3)c2cc1OC ?
inactive

Given CCN(CC)CCSc1nc2c(c(=N)n1-c1ccccc1)c(=S)n(-c1ccccc1)c(=S)n2-c1ccccc1 , state the outcome it received in this test.
inactive

---

Test system: RPMI-8226
Assay: NCI tumour cell line growth inhibition, 48 h
Calls of active or inactive are those of the source. Cut-off read from the data, not from the text of the source: active = GI50 up to about 1.1 µM and inactive = higher.
Parameter call: string, one of active, inactive

> print(dat)
                                   compound  system.name  classification
1  O=C1CC(O)c2c(Cl)sc(Cl)c21 (configuration not stated)    RPMI-8226        inactive
2             C/C(=N\O)c1ccc2ccc3ccccc3c2c1    RPMI-8226        inactive
3    C(=C\c1cc[n+](CCc2ccccc2)cc1)/c1ccccc1    RPMI-8226        inactive

Test call, this compound: CCOC(=O)C(SCCO)C(C(=O)OCC)n1cnc2c(=O)[nH]c(NC(C)=O)nc21 (configuration not stated)
inactive

Kindly provide the recorded test outcome for the following compound: CN(C)CC1CCCc2ccccc2C1=O (configuration not stated)
active

# outcome recorded in this test, key = Cc1nc2ccccc2c(=O)n1/N=C(\N=N\c1cc(Cl)ccc1Cl)c1ccc(N(C)C)cc1
inactive

Recorded test outcome, item COc1ccc(/C=N/n2c(Cc3ccccc3)n[nH]c2=O)cc1
inactive

Status in this test for S=c1sc2cscc2s1 ?
inactive

Just curious, what result did S=c1sc2ccccc2n1CN1CCN(Cc2ccccc2)CC1 get here?
inactive

// return assay outcome for Cc1cc(-c2cc(C(C)(C)C)c(O)c(C(C)(C)C)c2)c(C)cc1-c1cc(C(C)(C)C)c(O)c(C(C)(C)C)c1
inactive

Given [O-][n+]1onc2c1CCC(=N\O)/C2=N/Nc1ccccc1 , state the outcome it received in this test.
inactive

What outcome does the record of this test show for CN(C)C(=S)/N=c1\ssc(=S)n1Cc1ccccn1 ?
inactive

# fetch the recorded call for C[n+]1c(-c2ccc(/C=N\N3CCN(/N=C/c4ccc(-c5cn6ccccc6[n+]5C)cc4)CC3)cc2)cn2ccccc21 here
inactive

# fetch the recorded call for O=C(NCCc1ccc(F)cc1)c1cc(/C=C/c2cc(O)ccc2O)ccc1O here
inactive

What call does the record list for Cc1c(-c2coc(-c3ccc(Cl)cc3)n2)c(=O)n(-c2ccccc2)n1C ?
inactive

# outcome recorded in this test, key = N=C(N)NCCCS(=O)(=O)Nc1ccc(Nc2c3ccccc3nc3cc([N+](=O)[O-])ccc23)cc1
inactive

Look up the recorded call for O=C1C(c2ccc(C3=[N+]([O-])c4cc([N+](=O)[O-])ccc4C3=O)cc2)=[N+]([O-])c2cc([N+](=O)[O-])ccc21 in this test.
inactive

Please let me know the test result on file for COc1ccc2oc3c(OC)c(OC)c(OC)cc3c(=O)c2c1 .
inactive

For O=c1cnn(CCOCP(=O)(O)O)c(=O)[nH]1 , what call appears in the results of this test?
inactive

Call for entry BrC(=C(c1ccc(OC2CCCCO2)cc1)c1ccc(OC2CCCCO2)cc1)c1ccccc1 (configuration not stated) :
inactive

Outcome? CNC(=O)N(CCC#N)CCCN(C(=O)N(C)C)c1ccccc1
inactive

Answer briefly: the call reported for COc1ccc(CC/N=C2\CCC(C(=O)NCCc3ccc(OC)c(OC)c3)N2)cc1OC (configuration not stated) in this assay.
inactive
